- PROTOCOL SUMMARY: amyloid nucleation score (Sup35N fusion, yeast selection) (log enrichment); library NNK2; higher = more nucleation; inactive = no reads after selection;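 note: zero at mode of non-aggregating sequences after 7 days selection at 30°C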
RECORDED ENDPOINT: amyloid nucleation score

// known answers, use as guide
SUBSTANCE: SCSVTSAFRWTRCGLLRGIW
RECORDED ENDPOINT: amyloid nucleation score
RESULT VALUE: -0.048
--
SUBSTANCE: WTWTYARDVHTTLN
RECORDED ENDPOINT: amyloid nucleation score
RESULT VALUE: 1.13
--
SUBSTANCE: LAPLNSWKTY
RECORDED ENDPOINT: amyloid nucleation score
RESULT VALUE: -0.045
--
SUBSTANCE: FHSLRQLFMNTGVL
RECORDED ENDPOINT: amyloid nucleation score
RESULT VALUE: inactive
--
SUBSTANCE: SGFMLKWCKY
RECORDED ENDPOINT: amyloid nucleation score
RESULT VALUE: 0.874
--
SUBSTANCE: VVSRVECALAWVRNDIEALT
RECORDED ENDPOINT: amyloid nucleation score
RESULT VALUE: 0.343

Consider the substance shown here: MWSVLNHLRSDSDFSNA What is its recorded amyloid nucleation score? 1.13

Consider the substance shown here: TLSHPWADLLVSETHMVYR What is its recorded amyloid nucleation score? -0.381

Reference for the values: the supplement of paper PMC12042874
